Test system: RS4;11 cells
Test: RS4;11 cell viability assay (CellTiter Glo)
Format: cell-based, human
Conditions: Homo sapiens, RS4-11, 48 h, 50,000 cells per well, 10% human serum, 48 hours; read-out: RS4; 11 EC50 Values
pEC50: −log10 of the molar value.
measurement name: pEC50

Here are 5 compounds together with their reported answers.
CC1(C)CC(c2ccc(Cl)cc2)=C(CN2CCN(c3ccc(C(=O)NS(=O)(=O)c4ccc(NCC5CCOCC5)c(C(F)(F)F)c4)c(Oc4cnc5[nH]ccc5c4)c3)CC2)CO1 = 6.27
CC1(C)CCC(CN2CCN(c3ccc(C(=O)NS(=O)(=O)c4cnc(OCC5(F)CCN(CC#N)CC5)c(Cl)c4)c(Oc4cnc5[nH]ccc5c4)c3)CC2)=C(c2ccc(Cl)cc2)C1 = 7.58
CC1(C)CCC(CN2CCN(c3ccc(C(=O)NS(=O)(=O)c4ccc(OC[C@H]5CC[C@@H](N6CCOCC6)C5)c([N+](=O)[O-])c4)c(Oc4cnc5[nH]ccc5c4)c3)CC2)=C(c2ccc(Cl)cc2)C1 (relative stereo) = 7.79
CC1(C)CC(c2ccc(Cl)cc2)=C(CN2CCN(c3ccc(C(=O)NS(=O)(=O)c4ccc(NCC5CCOCC5)c(S(=O)(=O)C(F)(F)F)c4)c(Oc4cnc5[nH]ccc5c4)c3)CC2)CO1 = 6.57
CC1(C)CCC(CN2CCN(c3ccc(C(=O)NS(=O)(=O)c4ccc(OCC5(F)CCC(N(CCC#N)C6CC6)CC5)c([N+](=O)[O-])c4)c(Oc4cnc5[nH]ccc5c4)c3)CC2)=C(c2ccc(Cl)cc2)C1 (stereo not shown) = 7.58

1: CC1(C)CCC(CN2CCN(c3ccc(C(=O)NS(=O)(=O)c4ccc(OCC5CCN(C(CF)CF)CC5)c([N+](=O)[O-])c4)c(Oc4cnc5[nH]ccc5c4)c3)CC2)=C(c2ccc(Cl)cc2)C1
2: CC1(C)CCC(CN2CCN(c3ccc(C(=O)NS(=O)(=O)c4cnc(OC[C@@H]5C[C@H]6C[C@@H]5C[C@@]6(C)O)c(Cl)c4)c(Oc4cnc5[nH]ccc5c4)c3)CC2)=C(c2ccc(Cl)cc2)C1
### Prompt Smaller pEC50 value, 1 vs 2 ? Write down the label attached to your selection.
### Response 2

P: CC1(C)CCC(CN2CCN(c3ccc(C(=O)NS(=O)(=O)c4ccc(OCC5(F)CCN(C6CCOCC6)CC5)c([N+](=O)[O-])c4)c(Oc4cnc5[nH]ccc5c4)c3)CC2)=C(c2ccc(Cl)cc2)C1
Q: CN1CCC(COc2ncc(S(=O)(=O)NC(=O)c3ccc(N4CCN(CC5=C(c6ccc(Cl)cc6)CC(C)(C)CC5)CC4)cc3Oc3cnc4[nH]ccc4c3)cc2Br)CC1
### Prompt Smaller pEC50 value, P vs Q ? Write down the label attached to your selection.
### Response Q

====

Test system: RS4;11 cells
Test: RS4;11 cell viability assay (CellTiter Glo)
Assay type: cell-based, human
Conditions: Homo sapiens, RS4-11, 48 h, 50,000 cells per well, 10% human serum, 48 hours; read-out: RS4; 11 EC50 Values
measurement name: EC50 (nM)

CC1(C)CCC(CN2CCN(c3ccc(C(=O)NS(=O)(=O)c4cnc(NC5CCN(C6CC6)CC5)c(Cl)c4)c(Oc4cnc5[nH]ccc5c4)c3)CC2)=C(c2ccc(Cl)cc2)C1 [Example 243] = 807
COCCNc1ccc(S(=O)(=O)NC(=O)c2ccc(N3CCN(CC4=C(c5ccc(Cl)cc5)CC(C)(C)CC4)CC3)cc2Oc2ccc3[nH]ccc3c2)cc1[N+](=O)[O-] [Example 20] = 191
C#Cc1cc(S(=O)(=O)NC(=O)c2ccc(N3CCN(CC4=C(c5ccc(Cl)cc5)CC(C)(C)CC4)CC3)cc2Oc2cnc3[nH]ccc3c2)cnc1OCC1CCOCC1 [Example 69] = 1720
CC1(C)CCC(CN2CCN(c3ccc(C(=O)NS(=O)(=O)c4ccc(NCC5CCOC5)c([N+](=O)[O-])c4)c(Oc4cnc5[nH]ccc5c4)c3)CC2)=C(c2ccc(Cl)cc2)C1 (stereo not shown) [Example 114] = 10.8
CC1(C)CCC(CN2CCN(c3ccc(C(=O)NS(=O)(=O)c4ccc(OC[C@@H]5CN(C6COC6)C[C@H]5CF)c([N+](=O)[O-])c4)c(Oc4cnc5[nH]ccc5c4)c3)CC2)=C(c2ccc(Cl)cc2)C1 (relative stereo) [Example 137] = 12.7
CC1(C)CCC(CN2CCN(c3ccc(C(=O)NS(=O)(=O)c4ccc(OCC5(F)CCOCC5)c(C#N)c4)c(Oc4cnc5[nH]ccc5c4)c3)CC2)=C(c2ccc(Cl)cc2)C1 [Example 299] = 68

A: CN1CCC[C@H]1C(=O)N1CCC(COc2ccc(S(=O)(=O)NC(=O)c3ccc(N4CCN(CC5=C(c6ccc(Cl)cc6)CC(C)(C)CC5)CC4)cc3Oc3cnc4[nH]ccc4c3)cc2Cl)CC1 [Example 312]
B: CC1(C)CCC(CN2CCN(c3ccc(C(=O)NS(=O)(=O)c4cnc(NCC5CN(C6CC6)CCO5)c(Cl)c4)c(Oc4cnc5[nH]ccc5c4)c3)CC2)=C(c2ccc(Cl)cc2)C1 (stereo not shown) [Example 335]
### Prompt Given A and B , report the one with the higher recorded EC50. Write down the label attached to your selection.
### Response B
(B: 270 nM, A: 16.2 nM)

1: CC1(C)CCC(CN2CCN(c3ccc(C(=O)NS(=O)(=O)c4cnc(OCC5(F)CCN(C6COC6)CC5)c(Cl)c4)c(Oc4cnc5[nH]ccc5c4)c3)CC2)=C(c2ccc(Cl)cc2)C1 [Example 277]
2: CC1(C)CCC(CN2CCN(c3ccc(C(=O)NS(=O)(=O)c4ccc(NC5CN(C(CF)CF)C5)c([N+](=O)[O-])c4)c(Oc4cnc5[nH]ccc5c4)c3)CC2)=C(c2ccc(Cl)cc2)C1 [Example 151]
### Prompt Given 1 and 2 , report the one with the higher recorded EC50. Write down the label attached to your selection.
### Response 2

====

Test system: RS4;11 cells
Experiment: RS4;11 cell viability assay (CellTiter Glo)
Type: cell-based, human
Conditions: Homo sapiens, RS4-11, 48 h, 50,000 cells per well, 10% human serum, 48 hours; read-out: RS4; 11 EC50 Values
pEC50: −log10 of the molar value.
measurement name: pEC50

Here are 6 compounds together with their reported answers.
CC1(C)CCC(CN2CCN(c3ccc(C(=O)NS(=O)(=O)c4cnc(OCC5CCN(c6nccs6)CC5)c(Cl)c4)c(Oc4cnc5[nH]ccc5c4)c3)CC2)=C(c2ccc(Cl)cc2)C1 = 6.25
CC1(C)CCC(CN2CCN(c3ccc(C(=O)NS(=O)(=O)c4ccc(NC[C@H]5CC[C@H](O)C5)c([N+](=O)[O-])c4)c(Oc4cnc5[nH]ccc5c4)c3)CC2)=C(c2ccc(Cl)cc2)C1 = 7.96
CC1(C)CCC(CN2CCN(c3ccc(C(=O)NS(=O)(=O)c4ccc(OCC5(F)CCN(C6COC6)CC5)c(C#N)c4)c(Oc4cnc5[nH]ccc5c4)c3)CC2)=C(c2ccc(Cl)cc2)C1 = 7.88
CC1(C)CCC(CN2CCN(c3ccc(C(=O)NS(=O)(=O)c4ccc(NCC5CN(C6COC6)C5)c([N+](=O)[O-])c4)c(Oc4cnc5[nH]ccc5c4)c3)CC2)=C(c2ccc(Cl)cc2)C1 = 7.89
CC1(C)CCC(CN2CCN(c3ccc(C(=O)NS(=O)(=O)c4ccc(N[C@@H]5CCN(CC#N)C5)c([N+](=O)[O-])c4)c(Oc4cnc5[nH]ccc5c4)c3)CC2)=C(c2ccc(Cl)cc2)C1 = 7.79
CC(=O)N1CCC(CNc2ccc(S(=O)(=O)NC(=O)c3ccc(N4CCN(CC5=C(c6ccc(Cl)cc6)CC(C)(C)CC5)CC4)cc3Oc3cnc4[nH]ccc4c3)cc2[N+](=O)[O-])C1 (stereo not shown) = 7.76

a: CO[C@H]1CC[C@@H](CNc2ccc(S(=O)(=O)NC(=O)c3ccc(N4CCN(CC5=C(c6ccc(Cl)cc6)CC(C)(C)CC5)CC4)cc3Oc3cnc4[nH]ccc4c3)cc2[N+](=O)[O-])CC1
b: CC1(C)CCC(CN2CCN(c3ccc(C(=O)NS(=O)(=O)c4ccc(NCC5CN(C6CC6)CCO5)c([N+](=O)[O-])c4)c(Oc4cnc5[nH]ccc5c4)c3)CC2)=C(c2ccc(Cl)cc2)C1 (stereo not shown)
c: CC1(C)CCC(CN2CCN(c3ccc(C(=O)NS(=O)(=O)c4ccc(OCC5CCOC5)c(Cl)c4)c(Oc4cnc5[nH]ccc5c4)c3)CC2)=C(c2ccc(Cl)cc2)C1 (stereo not shown)
d: COC1(COc2ccc(S(=O)(=O)NC(=O)c3ccc(N4CCN(CC5=C(c6ccc(Cl)cc6)CC(C)(C)CC5)CC4)cc3Oc3cnc4[nH]ccc4c3)cc2[N+](=O)[O-])CCOCC1
### Prompt Please give the order of these compounds when sorted by pEC50, largest value leading. # list labels per requested ordering
### Response b, a, d, c

====

System: RS4;11 cells
Test: RS4;11 cell viability assay (CellTiter Glo);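 also: acute lymphoblastic leukemia line RS4,11, EC50 derived from percentage of viable cells after treatment relative to untreated controls, cell killing taken as a measure of Bcl-2 inhibition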
Assay type: cell-based, human
Conditions: Homo sapiens, RS4-11, 48 h, 50,000 cells per well, 10% human serum, 48 hours; read-out: RS4; 11 EC50 Values
pEC50: −log10 of the molar value.
measurement name: pEC50

CC1(C)CCC(CN2CCN(c3ccc(C(=O)NS(=O)(=O)c4cnc(OCCC5CCCO5)c(Cl)c4)c(Oc4cnc5[nH]ccc5c4)c3)CC2)=C(c2ccc(Cl)cc2)C1 (centres unmarked) [Example 289] = 6.17

1: CC1(C)CCC(CN2CCN(c3ccc(C(=O)NS(=O)(=O)c4cnc(OCC5(F)CCN(C(CF)CF)CC5)c(C(F)(F)F)c4)c(Oc4cnc5[nH]ccc5c4)c3)CC2)=C(c2ccc(Cl)cc2)C1 [Example 288]
2: CC1(C)CCC(CN2CCN(c3ccc(C(=O)NS(=O)(=O)c4ccc(NC5CCN(C6CCOC6)CC5)c([N+](=O)[O-])c4)c(Oc4cnc5[nH]ccc5c4)c3)CC2)=C(c2ccc(Cl)cc2)C1 (centres unmarked) [Example 143]
3: CC1(C)CCC(CN2CCN(c3ccc(C(=O)NS(=O)(=O)c4ccc(OCC5(F)CCN(C6CC6)CC5)c([N+](=O)[O-])c4)c(Oc4cnc5[nH]ccc5c4)c3)CC2)=C(c2ccc(Cl)cc2)C1 [Example 173]
4: CC1(C)CCC(CN2CCN(c3ccc(C(=O)NS(=O)(=O)c4cnc(OCC5CCN(CC#N)CC5)c(Cl)c4)c(Oc4cnc5[nH]ccc5c4)c3)CC2)=C(c2ccc(Cl)cc2)C1 [Example 253]
### Prompt Please give the order of these molecules when sorted by pEC50, largest value leading. # list labels per requested ordering
### Response 3, 2, 4, 1
